- subject_of_test: Human TRPV3 (Homo sapiens)
- Construct: expressed in transfected cells; host or cells: CHO cells (selected with G-418)
- Sequence (Q8NET8 whole entry): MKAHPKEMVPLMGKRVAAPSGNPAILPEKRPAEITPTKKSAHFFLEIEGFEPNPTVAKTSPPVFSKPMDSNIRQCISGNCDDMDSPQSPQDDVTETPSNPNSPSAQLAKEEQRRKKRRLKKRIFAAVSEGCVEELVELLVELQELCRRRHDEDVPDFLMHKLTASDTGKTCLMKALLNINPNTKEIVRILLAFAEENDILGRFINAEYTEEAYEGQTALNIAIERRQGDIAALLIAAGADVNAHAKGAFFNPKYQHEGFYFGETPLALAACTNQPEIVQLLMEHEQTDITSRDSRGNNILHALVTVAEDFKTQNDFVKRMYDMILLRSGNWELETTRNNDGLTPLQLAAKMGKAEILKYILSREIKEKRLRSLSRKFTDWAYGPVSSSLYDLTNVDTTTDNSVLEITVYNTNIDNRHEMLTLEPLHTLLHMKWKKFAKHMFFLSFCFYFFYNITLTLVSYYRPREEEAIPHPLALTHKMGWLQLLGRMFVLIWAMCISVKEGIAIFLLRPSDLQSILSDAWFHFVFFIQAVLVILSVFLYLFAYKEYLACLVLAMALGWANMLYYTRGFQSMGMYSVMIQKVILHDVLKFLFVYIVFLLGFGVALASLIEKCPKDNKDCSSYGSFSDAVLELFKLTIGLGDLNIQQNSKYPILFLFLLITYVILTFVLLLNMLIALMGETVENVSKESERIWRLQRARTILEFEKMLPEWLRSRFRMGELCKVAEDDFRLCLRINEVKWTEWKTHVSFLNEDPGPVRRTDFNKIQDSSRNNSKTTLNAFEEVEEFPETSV
- test_details: Screening for TRPV3 antagonist using the 45Calcium uptake assay (inhibition of 2-APB induced cellular uptake of radioactive calcium)
- Assay type: cell-based
- conditions_used: CHO, 1.0 μM test compound; Human TRPV3 expressing CHO cells; 2-APB 500 μM; read-out: Percentage inhibition at 1.0 μM
parameter_measured: inhibition at 1 µM (%)

Worked examples, 8 compounds total:
COc1cccc(/C=C/c2nc3ccccn3c(=O)c2-c2ccc(OC(F)(F)F)cc2)c1OC1CCCC1    20.6
COc1cccc(/C=C/c2nc3ccccn3c(=O)c2-c2ccc(OC(F)(F)F)cc2)c1OCC1CC1    79.5
CCCOc1c(/C=C/c2nc3ccccn3c(=O)c2-c2ccc(C#N)cc2)cccc1OC    77.9
COc1cccc(/C=C/c2nc3ccc(Cl)cn3c(=O)c2-c2ccc(C#N)cc2)c1OCC1CC1    0
CCCCOc1c(/C=C/c2nc3ccccn3c(=O)c2-c2ccc(OC(F)(F)F)cc2)cccc1OC    74.6
COc1cccc(/C=C/c2nc3c(OC)cccn3c(=O)c2-c2ccc(C#N)cc2)c1OC1CCCC1    54.8
COc1cccc(/C=C/c2nc3ccccn3c(=O)c2-c2cccc(OC(C)C)c2)c1OC1CCCC1    54.2
COc1cccc(/C=C/c2nc3ccccn3c(=O)c2-c2ccc(F)nc2)c1OC1CCCC1    42.2

1: COc1cccc(/C=C/c2nc3ccccn3c(=O)c2-c2ccc(C(=O)O)cc2)c1OC1CCCC1
2: COc1cccc(/C=C/c2nc3ccccn3c(=O)c2-c2cccc(NC(C)=O)c2)c1OC1CCCC1
3: CCCCOc1c(/C=C/c2nc3ccccn3c(=O)c2-c2ccc(C(F)(F)F)cc2)cccc1OC
4: O=c1c(-c2ccc(C(F)(F)F)cc2)c(/C=C/c2cccs2)nc2ccccn12
Request: Reorder: inhibition at 1 µM, max to min. Please respond by ranking the labels in the order requested.
Response: 3, 2, 4, 1
